tested on: TAB109; experiment: qHTS profiling for inhibitors of Plasmodium falciparum proliferation (AID 504749); also: nearly all actives have a fitted effect of over 60% in size; conditions: P. falciparum in erythrocytes, SYBR Green DNA, 72 h; series mostly up to 28.7 µM
Results filed as inconclusive are left out. The source made the active and inactive calls. Calls follow the shape of the dose curve; as a rule, active = well fitted inhibition curve with a large enough effect; inconclusive = small, poorly fitted or top-dose-only effect; inactive = flat fitted curve, though single readings scatter.
Classes used: active, inactive

INSERT INTO assay_data (compound, classification) VALUES
  ('Nc1cc(-c2ccncc2)c[nH]c1=O', 'inactive'),
  ('COC(=O)C1=C(C)NC(C)=C(C(=O)OCC(C)C)C1c1ccccc1[N+](=O)[O-] (centres undefined)', 'active'),
  ('O=C(/C=C/c1ccccc1)NCCO', 'inactive'),
  ('O=C(O)c1ccccc1Nc1cccc(C(F)(F)F)c1', 'inactive'),
  ('O=C(O)/C=C/C(O)c1ccc(Cl)cc1 (centres undefined)', 'inactive'),
  ('CCOC(=O)c1ccccc1O', 'inactive'),
  ('N=c1ccn2c(n1)O[C@H]1[C@H](O)[C@@H](CO)O[C@H]12', 'inactive'),
  ('O=C(Nc1ccc(C(=O)O)c(O)c1)c1ccccc1', 'inactive'),
  ('C=CCCCCCCCCC(=O)O', 'inactive'),
  ('Nc1ccc(O)c(C(=O)O)c1', 'inactive'),
  ('CCCCCCCCCCCCCCCC(=O)OC(C)C', 'inactive'),
  ('CC(=O)[C@]1(O)Cc2c(O)c3c(c(O)c2[C@@H](O[C@H]2C[C@H](N)[C@H](O)[C@H](C)O2)C1)C(=O)c1c(O)cccc1C3=O', 'active'),
  ('Cc1cc(O)c2ccccc2c1O', 'inactive'),
  ('CCCCCC[C@@H](O)C/C=C\CCCCCCCC(=O)O', 'inactive'),
  ('CCCSc1ccc2nc(NC(=O)OC)[nH]c2c1', 'inactive'),
  ('O=C(O)Cc1ccc(-c2ccccc2)cc1', 'inactive'),
  ('Cc1[nH]cnc1CN1CCc2c(c3ccccc3n2C)C1=O', 'inactive'),
  ('CC1(C)[C@@H](O)CC[C@]2(C)[C@H]3C(=O)C=C4[C@@H]5C[C@@](C)(C(=O)O)CC[C@]5(C)CC[C@@]4(C)[C@]3(C)CC[C@@H]12', 'inactive'),
  ('COc1cc(/C=C/C(=O)N2CCN(CC(=O)N3CCCC3)CC2)cc(OC)c1OC', 'inactive'),
  ('Nc1c(CC(=O)O)cccc1C(=O)c1ccc(Br)cc1', 'inactive'),
  ('CCCCCCCCCCCC(=O)[O][Sn]([CH2]CCC)([CH2]CCC)[O]C(=O)CCCCCCCCCCC', 'inactive'),
  ('[O-][n+]1ccccc1SSc1cccc[n+]1[O-]', 'active'),
  ('CCCCCCOc1ccccc1C(N)=O', 'inactive'),
  ('Cc1ccccc1CNc1ncnc2c1ncn2C1OC(CO)C(O)C1O (centres undefined)', 'inactive');

----------
tested on: UISO; assay: qHTS assay to identify novel small-molecules to repurpose for Merkel cell carcinoma treatment (AID 1296009); conditions: MCC and control cell lines, CellTiter-Glo viability, 72 h; series mostly up to 46 µM; also: nearly all actives have a fitted effect of over 60% in size
Results filed as inconclusive are left out. Activity calls are given as the source filed them. Calls follow the shape of the dose curve; as a rule, active = well fitted inhibition curve with a large enough effect; inconclusive = small, poorly fitted or top-dose-only effect; inactive = flat fitted curve, though single readings scatter.
Classes used: true for active, false for inactive

INSERT INTO assay_data (compound, classification) VALUES
  ('O=C(O)c1ccccc1Nc1cccc(C(F)(F)F)c1', 'false'),
  ('CC(C(=O)O)c1ccc2c(c1)[nH]c1ccc(Cl)cc12 (stereo not given)', 'false'),
  ('COC(=O)C1=C(C)NC(C)=C(C(=O)OCC(C)C)C1c1ccccc1[N+](=O)[O-] (stereo not given)', 'true'),
  ('Clc1ccccc1-c1nc(-c2ccncc2)no1', 'false'),
  ('CCCCCCCCCCCCCCCCCC(=O)O', 'false'),
  ('O=C(OCc1ccccc1)c1ccccc1', 'false'),
  ('O=C(CCN1CCN(CCO)CC1)N1c2ccccc2Sc2ccc(C(F)(F)F)cc21', 'false'),
  ('C[N+]1(C)[C@@H]2CC(OC(=O)[C@H](CO)c3ccccc3)C[C@H]1[C@@H]1O[C@@H]12 (stereo not given in full)', 'false'),
  ('CC(C)(C)c1nnc(NS(=O)(=O)c2ccc(N)cc2)s1', 'false'),
  ('Cc1ccc(O)c(-n2nc3ccccc3n2)c1', 'false'),
  ('Cc1ccc2c(n1)Oc1ccc(C(C)C(=O)OCC(=O)N(C)C)cc1C2 (stereo not given)', 'false'),
  ('CCC1C(=O)OCC1Cc1cncn1C (stereo not given)', 'false'),
  ('N=C1N=C(N)c2cc3ccccc3cc21', 'true'),
  ('CN1CC(=O)N/C1=N/C(=O)Nc1cccc(Cl)c1', 'false'),
  ('COc1cc(NC(C)CCCN)c2ncccc2c1 (stereo not given)', 'true');

----------
assay: NS1 protein of Zika virus - qHTS assay to identify small molecule inhibitors in human HEK 293 cells (AID 1347053); conditions: HEK293 ZIKV MR766 infection, NS1 TR-FRET, 24 h; series mostly up to 46.1 µM; also: nearly all actives have a fitted effect of over 55% in size
Inconclusive results are not listed. Activity calls are given as the source filed them. Calls follow the shape of the dose curve; as a rule, active = well fitted inhibition curve with a large enough effect; inconclusive = small, poorly fitted or top-dose-only effect; inactive = no such curve, though single readings can be large or run the other way.
assay-metric: outcome

INSERT INTO results (compound, assay_metric, recorded_value) VALUES
  ('N[C@@H](CC(=O)O)C(=O)O', 'outcome', 'inactive'),
  ('C#C[C@]1(O)CC[C@H]2[C@@H]3CCC4=Cc5oncc5CC4(C)[C@H]3CCC21C (stereo partly specified)', 'outcome', 'inactive'),
  ('O=C(O)CC1CCCc2ccccc2C1O (stereo unspecified)', 'outcome', 'inactive'),
  ('Brc1cc2c(cc1[C@H]1Nc3ccccc3[C@H]3C=CC[C@H]31)OCO2', 'outcome', 'inactive'),
  ('O=S(=O)(c1cccc2c(I)cccc12)N1CCCNCC1', 'outcome', 'inactive'),
  ('CC(C(=O)O)c1ccc2c(c1)[nH]c1ccc(Cl)cc12 (stereo unspecified)', 'outcome', 'inactive'),
  ('CN1CCc2cc(NC(=O)Nc3cccnc3)ccc21', 'outcome', 'inactive'),
  ('O=C(O)c1cc(O)c(O)c(O)c1', 'outcome', 'inactive'),
  ('O=C1NC(=O)/C(=C/c2ccc3nccnc3c2)S1', 'outcome', 'inactive'),
  ('c1ccc(-c2ccccn2)nc1', 'outcome', 'inactive'),
  ('Cc1nc2ccccc2n1Cc1ccc(Cl)cc1', 'outcome', 'inactive'),
  ('COc1ccnc2c1CCCCC2S(=O)c1nc2ccccc2[nH]1 (stereo unspecified)', 'outcome', 'inactive'),
  ('CCCCCCCCCCCCCCCCCC(=O)OC(CC(=O)O)C[N+](C)(C)C (stereo unspecified)', 'outcome', 'inactive'),
  ('Cn1ncc(S(=O)(=O)Cc2ccccc2)c(Br)c1=O', 'outcome', 'inactive'),
  ('O=P(O)(O)C(Cl)(Cl)P(=O)(O)O', 'outcome', 'inactive'),
  ('COc1ccc(-c2cc(=O)c3c(O)c(OC)c(OC)cc3o2)cc1O', 'outcome', 'inactive'),
  ('C#C[C@]1(O)CC[C@H]2[C@@H]3CCc4cc(O)ccc4[C@H]3CC[C@@]21C', 'outcome', 'inactive'),
  ('COC(=O)C1=C(C)NC(C)=C(C(=O)OCC(C)C)C1c1ccccc1[N+](=O)[O-] (stereo unspecified)', 'outcome', 'inactive'),
  ('COc1cc(OC)c(/C=C2/C(=O)Nc3ccccc32)c(OC)c1', 'outcome', 'inactive'),
  ('S=c1[nH]c2ccccc2s1', 'outcome', 'inactive'),
  ('CCOc1ccc2nc(S(N)(=O)=O)sc2c1', 'outcome', 'inactive'),
  ('O=C1CN(/N=C/c2ccc([N+](=O)[O-])o2)C(=O)N1', 'outcome', 'inactive'),
  ('Nc1ccc(O)c(C(=O)O)c1', 'outcome', 'inactive'),
  ('CCCCCCCC/C=C/C(=O)O', 'outcome', 'inactive'),
  ('C=CCCCCCCCCC(=O)O', 'outcome', 'inactive'),
  ('O=C(c1ccc(OCCCc2cnc[nH]2)cc1)C1CC1', 'outcome', 'inactive');

----------
biological target: ATPase family AAA domain-containing protein 5 (Homo sapiens); assay: Validation screen for small molecules that inhibit ELG1-dependent DNA repair in human embryonic kidney (HEK293T) cells expressing luciferase-tagged ELG1 (AID 493107); details: HEK293T ELG1-luciferase level, luminescence, 5-fluorouridine co-treatment, 16 h; series mostly up to 46.1 µM; also: nearly all actives have a fitted effect of over 70% in size
Results filed as inconclusive are left out. Activity calls are given as the source filed them. The call rests on the fitted dose curve; in most records, active means well fitted inhibition curve with a large enough effect; inconclusive means small, poorly fitted or top-dose-only effect, or effect the other way; inactive means flat fitted curve, though single readings scatter.
Classes used: active, inactive

INSERT INTO measurements (molecule, classification) VALUES
  ('Cn1ncc(S(=O)(=O)Cc2ccccc2)c(Br)c1=O', 'inactive'),
  ('N#C/C(=C\c1ccc(-c2cc(Cl)ccc2Cl)o1)C(=O)Nc1cccc2ncccc12', 'active'),
  ('C[C@@H](NC(=O)/C(C#N)=C/c1ccc(O)c(O)c1)c1ccccc1', 'inactive'),
  ('OC[C@H]1O[C@@H](n2cnc3c(NC4CCCC4)ncnc32)[C@H](O)[C@@H]1O', 'inactive'),
  ('O=c1[nH]c2cc([N+](=O)[O-])c([N+](=O)[O-])cc2[nH]c1=O', 'inactive'),
  ('COc1ccccc1CNCCCCCCNCCCCCCCCNCCCCCCNCc1ccccc1OC', 'inactive'),
  ('CCCCCCCCCCCCCCCC(=O)OC(CC(=O)O)C[N+](C)(C)C (configuration not stated)', 'inactive'),
  ('CCC1C(=O)OCC1Cc1cncn1C (configuration not stated)', 'inactive'),
  ('CC(=O)/C=C1\C(=O)N(C)c2ccccc21', 'inactive'),
  ('O=C(O)CC1CCCc2ccccc2C1O (configuration not stated)', 'inactive'),
  ('NC[C@H]1O[C@@H](n2cnc3c(N)ncnc32)[C@H](O)[C@@H]1O', 'inactive'),
  ('CCCCN1CCC(n2c(=O)[nH]c3ccccc32)CC1', 'inactive'),
  ('CO/S(=N\S(=O)(=O)c1ccc(Cl)cc1)c1ccc([N+](=O)[O-])cc1 (configuration not stated)', 'inactive'),
  ('CCCN(CC1CC1)c1nc(C)nc(Nc2c(Cl)cc(Cl)cc2Cl)c1Cl', 'inactive'),
  ('CC(C)NCC(O)COc1cccc2ccccc12 (configuration not stated)', 'inactive'),
  ('c1cnc2c(c1)ccc1cccnc12', 'active'),
  ('Nc1nc(Cl)nc2c1ncn2[C@@H]1O[C@H](COP(=O)(O)OP(=O)(O)OP(=O)(O)O)[C@@H](O)[C@H]1O', 'inactive'),
  ('CCCCCCCCCCCCCCCCCCNC(=O)OCC(COP(=O)([O-])OCC[n+]1ccsc1)OC (configuration not stated)', 'inactive'),
  ('NCCCCCCCCCCN', 'inactive'),
  ('Nc1nc(SCc2ccc([N+](=O)[O-])cc2)c2ncn([C@@H]3O[C@H](CO)[C@@H](O)[C@H]3O)c2n1', 'active'),
  ('C=CC(=O)c1ccc(CCCCCC)cc1', 'inactive'),
  ('CN(C)C(N)=NCCC[C@H](N)C(=O)O', 'inactive'),
  ('O=C1NC(O)=NC1(c1ccccc1)c1ccccc1', 'inactive'),
  ('CNC(=O)[C@H]1O[C@@H](n2cnc3c(NCc4ccc(N)cc4)ncnc32)[C@H](O)[C@@H]1O', 'inactive'),
  ('O=C(O)c1cc(=O)c2c(Cl)cc(Cl)cc2[nH]1', 'inactive'),
  ('O=C1/C(=C/c2ccsc2)CC/C1=C\c1cccs1', 'inactive'),
  ('CC(C)NC[C@H](O)COc1cccc2[nH]ccc12', 'inactive');
